Can you tell me relative cell viability for the items I'm about to list?
- System: HL-1
- ASSAY_METHOD_TEXT: relative cell viability (CellTiter-Glo) vs DMSO control (% of DMSO control); higher = more viable cells
- ASSAY_CONDITIONS: oxygen condition: normoxia 72 h; 1000 nM
Structures can show the parent of a compound that is named as a salt.
Answer as a number with no unit attached.

Field relative cell viability (entry OC(c1ccccc1)(c1ccccc1)C1CCNCC1 ) reads 104

Field relative cell viability (entry O=P1(NCCCl)OCCCN1CCCl (stereo not given) [Ifosfamide] ) reads 117

Field relative cell viability (entry CCN(C)C(=O)Oc1cccc([C@H](C)N(C)C)c1 [Rivastigmine tartrate] ) reads 108

Field relative cell viability (entry CNC1CC(N)C(O)C(OC2OC(CO)C(O)C3OC4(OC(C(N)CO)C(O)C(O)C4O)OC23)C1O (stereo not given) ) reads 110

Field relative cell viability (entry COc1ccc(C(CN(C)C)C2(O)CCCCC2)cc1 (stereo not given) ) reads 99.5

###

- Tested on: HL-1
- ASSAY_METHOD_TEXT: relative cell viability (CellTiter-Glo) vs DMSO control (% of DMSO control); higher = more viable cells
- ASSAY_CONDITIONS: oxygen condition: normoxia 72 h; 40 nM
Counter-ions that a name gives are not always drawn.
Mark Condition met only for relative cell viability values smaller than 100; exact matches and larger values are Condition not met.

Ask | Is the reported relative cell viability for Cc1cccc([C@H](C)c2c[nH]cn2)c1C [Dexmedetomidine HCl] strictly below 100?
Reply | Condition not met

Ask | Is the reported relative cell viability for Cn1c(CCCC(=O)O)nc2cc(N(CCCl)CCCl)ccc21 [Bendamustine HCL] strictly below 100?
Reply | Condition not met

Ask | Is the reported relative cell viability for C[C@]12CC[C@H]3[C@@H](CC[C@@]45O[C@@H]4C(O)=C(C#N)C[C@]35C)[C@@H]1CC[C@@H]2O strictly below 100?
Reply | Condition not met

Ask | Is the reported relative cell viability for C/C=C(\C)C(=O)N[C@@H](c1ccccc1)[C@@H](O)C(=O)O[C@H]1C[C@@]2(O)[C@@H](OC(=O)c3ccccc3)[C@@H]3[C@]4(OC(C)=O)CO[C@@H]4C[C@H](O)[C@@]3(C)C(=O)[C@H](OC(C)=O)C(=C1C)C2(C)C strictly below 100?
Reply | Condition met

Ask | Is the reported relative cell viability for OC(c1ccccc1)(c1ccccc1)C1CCNCC1 strictly below 100?
Reply | Condition not met

Ask | Is the reported relative cell viability for CC(=O)O[C@@]12CO[C@@H]1C[C@H](O)[C@@]1(C)C(=O)[C@H](O)C3=C(C)[C@@H](O)C[C@@](O)([C@@H](OC(=O)c4ccccc4)[C@H]21)C3(C)C strictly below 100?
Reply | Condition not met

Ask | Is the reported relative cell viability for C[C@]12C/C(=C/O)C(=O)C[C@@H]1CC[C@@H]1[C@@H]2CC[C@@]2(C)[C@H]1CC[C@]2(C)O strictly below 100?
Reply | Condition not met

Ask | Is the reported relative cell viability for CNC(=O)Oc1ccc2c(c1)[C@]1(C)CCN(C)[C@@H]1N2C [Physostigmine Salicylate] strictly below 100?
Reply | Condition met

###

Can you tell me relative cell viability for the items I'm about to list?
- System: HL-1
- ASSAY_METHOD_TEXT: relative cell viability (CellTiter-Glo) vs DMSO control (% of DMSO control); higher = more viable cells
- ASSAY_CONDITIONS: oxygen condition: normoxia 72 h; 1000 nM
Where a name gives a salt, the structure may show the parent alone.

C[C@@H]1O[C@@H](O[C@H]2C[C@@H](O)[C@]3(CO)[C@H]4[C@H](O)C[C@]5(C)[C@@H](C6=CC(=O)OC6)CC[C@]5(O)[C@@H]4CC[C@]3(O)C2)[C@H](O)[C@H](O)[C@H]1O on HL-1 gives relative cell viability = 98.8

CN1c2ccccc2C(NCCCCCCC(=O)O)c2ccc(Cl)cc2S1(=O)=O (stereo unspecified) [Tianeptine sodium] on HL-1 gives relative cell viability = 104

O=C(O)c1nn(Cc2ccc(Cl)cc2Cl)c2ccccc12 on HL-1 gives relative cell viability = 122

Cc1cccc([C@H](C)c2c[nH]cn2)c1C [Dexmedetomidine HCl] on HL-1 gives relative cell viability = 98.5

CC[N+]1(C)CCCC(OC(=O)C(O)(c2ccccc2)c2ccccc2)C1 (stereo unspecified) [Pipenzolate Bromide] on HL-1 gives relative cell viability = 101

C[C@]12CCC(=O)C=C1C=C[C@@H]1[C@@H]2CC[C@@]2(C)[C@H]1CC[C@@]2(O)CCC(=O)O [Potassium Canrenoate] on HL-1 gives relative cell viability = 94.2

O=C1CC[C@@]2(O)[C@H]3Cc4ccc(O)c5c4[C@@]2(CCN3CC2CC2)[C@H]1O5 [Naltrexone HCl] on HL-1 gives relative cell viability = 113

COC(=O)C1=CCCN(C)C1 on HL-1 gives relative cell viability = 109

CN1C(=O)COc2c(C(=O)NC3CN4CCC3CC4)cc(Cl)cc21 (stereo unspecified) [Azasetron HCl] on HL-1 gives relative cell viability = 110

Cc1cccc(Cc2c[nH]cn2)c1C [Detomidine HCl] on HL-1 gives relative cell viability = 98.6

CCC1(c2cccc(O)c2)CCCCN(C)C1 (stereo unspecified) [Meptazinol HCl] on HL-1 gives relative cell viability = 102

O=C(O[C@H]1C[N+]2(CCCOc3ccccc3)CCC1CC2)C(O)(c1cccs1)c1cccs1 [Aclidinium Bromide] on HL-1 gives relative cell viability = 106

Cn1c(CCCC(=O)O)nc2cc(N(CCCl)CCCl)ccc21 [Bendamustine HCL] on HL-1 gives relative cell viability = 110

C[N+](C)(C)CCCCCCCCCC[N+](C)(C)C [Decamethonium bromide] on HL-1 gives relative cell viability = 106

Cc1cccc(C)c1NC(=O)CN1CCCC1=O on HL-1 gives relative cell viability = 105

CCOC(=O)c1cncn1[C@H](C)c1ccccc1 [Etomidate] on HL-1 gives relative cell viability = 104

###

- Test system: HL-1
- ASSAY_METHOD_TEXT: relative cell viability (CellTiter-Glo) vs DMSO control (% of DMSO control); higher = more viable cells
- ASSAY_CONDITIONS: oxygen condition: normoxia 72 h; 200 nM
Where a name gives a salt, the structure may show the parent alone.
Can you tell me relative cell viability for the items I'm about to list?
Answer as a number with no unit attached.

Field relative cell viability (entry O=C(O[C@H]1C[N+]2(CCCOc3ccccc3)CCC1CC2)C(O)(c1cccs1)c1cccs1 [Aclidinium Bromide] ) reads 115

Field relative cell viability (entry O=C(O)c1nn(Cc2ccc(Cl)cc2Cl)c2ccccc12 ) reads 102

Field relative cell viability (entry Cc1cccc(Cc2c[nH]cn2)c1C [Detomidine HCl] ) reads 88.2

Field relative cell viability (entry CN1c2ccccc2C(NCCCCCCC(=O)O)c2ccc(Cl)cc2S1(=O)=O (stereo not given) [Tianeptine sodium] ) reads 103

Field relative cell viability (entry CN(C)C(=O)Oc1ccc[n+](C)c1 [Pyridostigmine Bromide] ) reads 104

###

- System: HL-1
- ASSAY_METHOD_TEXT: relative cell viability (CellTiter-Glo) vs DMSO control (% of DMSO control); higher = more viable cells
- ASSAY_CONDITIONS: oxygen condition: normoxia 72 h; 40 nM
Where a name gives a salt, the structure may show the parent alone.
READOUT: relative cell viability
Answer as a number with no unit attached.

Field relative cell viability (entry CN(C)C(=O)Oc1ccc[n+](C)c1 [Pyridostigmine Bromide] ) reads 92.1

Field relative cell viability (entry O=C(O[C@H]1C[C@H]2CC[C@@H](C1)[N+]21CCCC1)C(O)(c1ccccc1)c1ccccc1 [Trospium chloride] ) reads 103

Field relative cell viability (entry O=C(O[C@H]1C[N+]2(CCCOc3ccccc3)CCC1CC2)C(O)(c1cccs1)c1cccs1 [Aclidinium Bromide] ) reads 103

Field relative cell viability (entry CC[C@@]1(O)C(=O)OCc2c1cc1n(c2=O)Cc2cc3ccccc3nc2-1 ) reads 104

Field relative cell viability (entry CC(=O)O[C@H]1C[C@@H]2CC[C@@H]3[C@H](CC[C@@]4(C)[C@H]3C[C@H]([N+]3(C)CCCCC3)[C@@H]4OC(C)=O)[C@@]2(C)C[C@@H]1[N+]1(C)CCCCC1 ) reads 101

Field relative cell viability (entry O=C(O)c1nn(Cc2ccc(Cl)cc2Cl)c2ccccc12 ) reads 111

Field relative cell viability (entry C[C@@H]1O[C@@H](O[C@H]2C[C@@H](O)[C@]3(CO)[C@H]4[C@H](O)C[C@]5(C)[C@@H](C6=CC(=O)OC6)CC[C@]5(O)[C@@H]4CC[C@]3(O)C2)[C@H](O)[C@H](O)[C@H]1O ) reads 105

Field relative cell viability (entry NCCc1c[nH]c2ccc(O)cc12 [Serotonin HCl] ) reads 101

Field relative cell viability (entry C=CC[C@]1(O)CC[C@H]2[C@@H]3CCC4=CC(=O)CCC4=C3C=C[C@@]21C ) reads 104

Field relative cell viability (entry COc1ccc(C(CN(C)C)C2(O)CCCCC2)cc1 (configuration not stated) ) reads 102

Field relative cell viability (entry CC(O)(CS(=O)(=O)c1ccc(F)cc1)C(=O)Nc1ccc(C#N)c(C(F)(F)F)c1 (configuration not stated) [Bicalutamide] ) reads 106

Field relative cell viability (entry CC(C)N(CCNC(=O)CN1CCCC1=O)C(C)C ) reads 98.6

Hey, just so you know, these numbers are from the supplement of paper PMC8371130.
